- Target System: Ubiquitin carboxyl-terminal hydrolase isozyme L1 (Homo sapiens) (UniProt P09936)
- Sequence (P09936 whole entry, looked up): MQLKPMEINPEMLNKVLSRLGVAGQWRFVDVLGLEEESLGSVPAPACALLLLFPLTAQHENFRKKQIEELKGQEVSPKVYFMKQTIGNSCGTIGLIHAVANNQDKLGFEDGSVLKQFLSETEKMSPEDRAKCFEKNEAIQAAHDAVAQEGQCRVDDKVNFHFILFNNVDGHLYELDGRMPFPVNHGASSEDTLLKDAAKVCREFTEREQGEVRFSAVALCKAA
- Protocol: Inhibition of UCHL1 in HEK293T cells incubated for 24 hrs by SDS-PAGE based fluorescence scanning Western blot analysis
- Type: cell-based
The source made the active and inactive calls. The calls are words filed in the database; no cut-off is given here.
Reply using exactly one outcome from TRUE (active), FALSE (inactive)

[
  {
    "Smiles Entry": "N#CN1CC[C@@H](C(=O)Nc2nc3c(s2)CN(C(=O)c2cccc(S(=O)(=O)N4CCOCC4)c2)CC3)C1",
    "Answer Label": "FALSE"
  },
  {
    "Smiles Entry": "N#CN1CC[C@@H](C(=O)Nc2nc3c(s2)CN(C(=O)c2cc(-n4ccnn4)ccc2F)CC3)C1",
    "Answer Label": "FALSE"
  },
  {
    "Smiles Entry": "CC(=O)N1CCN(S(=O)(=O)c2cccc(C(=O)N3CCc4nc(NC(=O)[C@@H]5CCN(C#N)C5)sc4C3)c2)CC1",
    "Answer Label": "FALSE"
  },
  {
    "Smiles Entry": "N#CN1CC[C@@H](C(=O)Nc2nc3c(s2)CN(C(=O)c2cnc(-c4cccs4)s2)CC3)C1",
    "Answer Label": "TRUE"
  },
  {
    "Smiles Entry": "N#CN1CC[C@@H](C(=O)Nc2nc3c(s2)CN(C(=O)c2cccc(-c4ncon4)c2)CC3)C1",
    "Answer Label": "TRUE"
  },
  {
    "Smiles Entry": "Cc1cc(C(=O)N2CCc3nc(NC(=O)[C@@H]4CCN(C#N)C4)sc3C2)ccc1Br",
    "Answer Label": "TRUE"
  }
]

Exercise: For this compound, state the assay outcome: Cc1csc(-c2cccc(C(=O)N3CCc4nc(NC(=O)[C@@H]5CCN(C#N)C5)sc4C3)c2)n1
Key: TRUE
